All figures here come from patent US20110190196A1.

measured.target: ATP-binding cassette transporter A1 (ABCA1) (UniProt P41233 1-2261, limits assumed)
Sequence (P41233 whole entry): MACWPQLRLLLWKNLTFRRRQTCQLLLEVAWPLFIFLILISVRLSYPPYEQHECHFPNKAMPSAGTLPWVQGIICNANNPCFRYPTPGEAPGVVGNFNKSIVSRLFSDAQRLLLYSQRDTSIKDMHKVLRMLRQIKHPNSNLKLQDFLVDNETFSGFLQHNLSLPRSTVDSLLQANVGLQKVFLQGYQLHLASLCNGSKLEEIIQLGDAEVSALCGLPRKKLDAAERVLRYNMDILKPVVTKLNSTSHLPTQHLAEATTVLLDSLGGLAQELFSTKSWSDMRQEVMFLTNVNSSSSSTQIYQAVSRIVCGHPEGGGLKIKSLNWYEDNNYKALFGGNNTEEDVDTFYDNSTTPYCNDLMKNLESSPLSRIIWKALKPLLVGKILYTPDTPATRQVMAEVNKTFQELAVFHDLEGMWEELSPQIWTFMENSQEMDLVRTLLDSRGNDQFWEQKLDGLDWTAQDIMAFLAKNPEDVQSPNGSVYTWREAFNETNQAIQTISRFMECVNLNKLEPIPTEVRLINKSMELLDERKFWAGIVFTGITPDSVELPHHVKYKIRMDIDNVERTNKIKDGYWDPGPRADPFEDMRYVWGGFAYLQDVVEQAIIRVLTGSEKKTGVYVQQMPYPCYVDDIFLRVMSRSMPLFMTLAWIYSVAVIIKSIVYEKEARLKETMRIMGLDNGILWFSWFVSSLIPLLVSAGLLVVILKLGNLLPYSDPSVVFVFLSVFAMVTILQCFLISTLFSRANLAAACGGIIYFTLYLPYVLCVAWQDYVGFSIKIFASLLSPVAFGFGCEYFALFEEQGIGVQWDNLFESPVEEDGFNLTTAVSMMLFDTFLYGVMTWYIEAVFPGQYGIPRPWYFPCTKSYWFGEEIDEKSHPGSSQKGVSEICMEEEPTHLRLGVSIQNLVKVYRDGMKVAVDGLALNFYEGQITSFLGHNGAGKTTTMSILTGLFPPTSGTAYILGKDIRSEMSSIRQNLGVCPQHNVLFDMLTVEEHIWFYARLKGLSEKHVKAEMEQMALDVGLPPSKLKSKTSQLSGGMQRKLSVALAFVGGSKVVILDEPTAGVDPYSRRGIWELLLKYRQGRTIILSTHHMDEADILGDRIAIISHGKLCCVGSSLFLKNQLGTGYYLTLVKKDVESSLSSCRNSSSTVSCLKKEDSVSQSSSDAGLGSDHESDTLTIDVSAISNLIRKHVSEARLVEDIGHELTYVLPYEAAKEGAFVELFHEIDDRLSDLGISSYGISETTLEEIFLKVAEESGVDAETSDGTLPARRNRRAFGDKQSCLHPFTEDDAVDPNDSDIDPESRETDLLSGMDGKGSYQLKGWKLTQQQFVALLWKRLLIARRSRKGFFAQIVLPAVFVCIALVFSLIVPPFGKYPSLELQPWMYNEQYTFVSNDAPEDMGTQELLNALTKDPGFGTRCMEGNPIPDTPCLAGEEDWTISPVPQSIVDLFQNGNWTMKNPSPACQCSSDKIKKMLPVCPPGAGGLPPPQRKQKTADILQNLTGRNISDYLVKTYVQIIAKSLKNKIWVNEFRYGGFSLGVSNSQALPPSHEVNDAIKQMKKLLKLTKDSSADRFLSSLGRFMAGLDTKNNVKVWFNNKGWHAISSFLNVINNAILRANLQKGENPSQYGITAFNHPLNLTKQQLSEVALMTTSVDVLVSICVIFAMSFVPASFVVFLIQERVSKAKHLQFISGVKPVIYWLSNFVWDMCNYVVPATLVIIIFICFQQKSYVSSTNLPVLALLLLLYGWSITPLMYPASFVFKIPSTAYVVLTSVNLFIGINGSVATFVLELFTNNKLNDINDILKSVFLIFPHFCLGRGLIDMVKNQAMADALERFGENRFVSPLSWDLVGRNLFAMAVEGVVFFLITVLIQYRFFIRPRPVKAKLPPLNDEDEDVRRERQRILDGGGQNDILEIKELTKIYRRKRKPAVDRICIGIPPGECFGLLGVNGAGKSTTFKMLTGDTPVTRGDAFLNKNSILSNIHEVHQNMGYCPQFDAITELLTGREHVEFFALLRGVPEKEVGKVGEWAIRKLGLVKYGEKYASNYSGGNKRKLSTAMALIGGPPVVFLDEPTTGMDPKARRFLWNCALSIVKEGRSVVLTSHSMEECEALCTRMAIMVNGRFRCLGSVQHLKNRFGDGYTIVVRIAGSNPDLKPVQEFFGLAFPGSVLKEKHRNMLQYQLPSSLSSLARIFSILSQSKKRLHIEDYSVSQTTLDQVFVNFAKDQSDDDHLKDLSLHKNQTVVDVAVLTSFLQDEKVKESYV
method: cell-based or functional assay
measured.property: % cholesterol efflux/4 hours at 30 µg/ml (%)

In the examples that follow, each entry is paired with its recorded % cholesterol efflux/4 hours at 30 µg/ml.
> print(dat)
                                     binder  endpoint.result
1  ELREKLEAWFELFREFLERF [SEQ ID NO:2 peptide]             3.66
2           EVREKLEAWFELFREFAERFKS [N965-2]             3.98
3            EVREKLEAWFELFREFLERFL [N965-6]             2.75

A. ELREKLEAWRELFEEFFARFLS [N965-9]
B. EVREKLEAWFELFREFAERFLS [N965-3]
Q. Of A and B , whose reported % cholesterol efflux/4 hours at 30 µg/ml is numerically smaller? Answer by stating the label of the chosen item.
A. A
